These data points were gathered from the supplement of paper PMC10307832.

Please go through the items and note down their relative viability.
- Tested on: NCI-H2228
- assayProcedure: relative viability (nuclei count vs DMSO), 5 days (fraction); higher = more cells survive
- appliedConditions: first compound 6.325 µM
Please reply with the value in numeric form only.

input: Return reported relative viability; argument: Cc1csc(=NC2CCCCC2)n1/N=C/c1ccc(O)c(O)c1O [MIM1] + COc1cccc2cc(-c3nc([C@H]4CC[C@H](C(=O)O)CC4)n4ncnc(N)c34)[nH]c12 [OSI-027] (partner 0.5 µM)
output: 0.217

input: Entry under review: Cc1csc(=NC2CCCCC2)n1/N=C/c1ccc(O)c(O)c1O [MIM1] + CC1(C)CCC(c2ccc(Cl)cc2)=C(CN2CCN(c3ccc(C(=O)NS(=O)(=O)c4ccc(N[C@H](CCN5CCOCC5)CSc5ccccc5)c(S(=O)(=O)C(F)(F)F)c4)cc3)CC2)C1 [Navitoclax] (partner 0.5 µM) . Reported relative viability?
output: 0.274

input: Please look up its relative viability: Cc1csc(=NC2CCCCC2)n1/N=C/c1ccc(O)c(O)c1O [MIM1] + C[C@]1(O)C[C@@H](c2nc(-c3ccc4ccc(-c5ccccc5)nc4c3)c3c(N)nccn32)C1 [Linsitinib] (partner 1 µM)
output: 0.217

input: Name the recorded relative viability for Cc1csc(=NC2CCCCC2)n1/N=C/c1ccc(O)c(O)c1O [MIM1] + CC(C)C[C@H](NC(=O)[C@H](Cc1ccccc1)NC(=O)c1cnccn1)B(O)O [Bortezomib] (partner 0.002 µM) .
output: 0.414

---

- Tested on: LC-2-ad
- assayProcedure: relative viability (nuclei count vs DMSO), 5 days (fraction); higher = more cells survive
- appliedConditions: first compound 2.53 µM
experimentalEndpoint: relative viability
// response body must contain only the number

input: I'd like to know its relative viability. The compound in question is Nc1cccc2c1CN(C1CCC(=O)NC1=O)C2=O (stereo unspecified) [Lenalidomide] + C[C@]1(O)C[C@@H](c2nc(-c3ccc4ccc(-c5ccccc5)nc4c3)c3c(N)nccn32)C1 [Linsitinib] (partner 1 µM)
output: 0.862

input: Endpoint output: relative viability of Nc1cccc2c1CN(C1CCC(=O)NC1=O)C2=O (stereo unspecified) [Lenalidomide] + O=C(CCCCCCC(=O)Nc1ccccc1)NO [Vorinostat] (partner 1 µM) . Value?
output: 0.718

input: Which relative viability is reported for this compound? Nc1cccc2c1CN(C1CCC(=O)NC1=O)C2=O (stereo unspecified) [Lenalidomide] + CC(=O)Nc1cccc(-n2c(=O)n(C3CC3)c(=O)c3c(Nc4ccc(I)cc4F)n(C)c(=O)c(C)c32)c1 [Trametinib] (partner 0.02 µM)
output: 0.972

input: Entry under review: Nc1cccc2c1CN(C1CCC(=O)NC1=O)C2=O (stereo unspecified) [Lenalidomide] + O=C(c1cc(Cc2n[nH]c(=O)c3ccccc23)ccc1F)N1CCN(C(=O)C2CC2)CC1 [Olaparib] (partner 8 µM) . Reported relative viability?
output: 0.777

input: Return reported relative viability; argument: Nc1cccc2c1CN(C1CCC(=O)NC1=O)C2=O (stereo unspecified) [Lenalidomide] + Cc1cc(Nc2cc(N3CCN(C)CC3)nc(Sc3ccc(NC(=O)C4CC4)cc3)n2)n[nH]1 [Tozasertib] (partner 0.1 µM)
output: 0.469

input: Query (compound): Nc1cccc2c1CN(C1CCC(=O)NC1=O)C2=O (stereo unspecified) [Lenalidomide] + NC(=O)Nc1cc(-c2cccc(F)c2)sc1C(=O)N[C@H]1CCCNC1 [AZD7762] (partner 0.2 µM) ; field requested: relative viability
output: 0.865
